System: DU-145 prostate
Experiment: NCI tumour cell line growth inhibition, 48 h; in the data active = GI50 below about 0.43 µM; inactive = the rest
*1 amine or outer side, *2 acyl side, *3 side chain or, on linkers, in order; H or OH if unused. Where a SMILES comes first, the peptide text is derived from it. Bridges are numbered along the chain shown (N, C = ends). [ ]: non-standard residue; d: D form. The star is where a group is joined. Phe(3-Me) = Cc1cccc(C[C@H](N)C(=O)O)c1; NH(4-Cl-2-F-phenyl) = Fc1cc(Cl)ccc1N*; Pro(4R-Me) = C[C@H]1CN[C@H](C(=O)O)C1; Hyp = O=C(O)[C@@H]1C[C@@H](O)CN1; aThr = C[C@H](O)[C@H](N)C(=O)O; Pip = O=C(O)[C@@H]1CCCCN1; CO = O=C([*:1])[*:2]
Select the matching outcome among T (active), F (inactive)

Field: example entries. Status: answers known.
• Cc1nc(NC(=S)Nc2ccc(F)cc2)sc1C(=O)NNC(=S)Nc1ccc(F)cc1 = F
• Cc1cccc(C[C@H](NC(=O)Nc2ccc(Cl)cc2F)C(=O)N[C@@H]2C(=O)N3C[C@H](O)C[C@H]3C(=O)N3CCCC[C@H]3C(=O)N[C@@H](C)C(=O)N3C[C@H](C)C[C@H]3C(=O)O[C@H]2C)c1 ({NH(4-Cl-2-F-phenyl)-CO}-[Phe(3-Me)][aThr][Hyp][Pip]A[Pro(4R-Me)]; ester 2-C) = F
• Nc1ncc(-c2ccc(C(F)(F)F)cc2)c(NC2CCCCCC2)n1 = F
• CN(C)CC#Cc1cccc(C(=O)c2cnn(-c3ccc(F)cc3)c2N)c1 = F
• Cn1c2ccccc2c2nnc(N/N=C/c3ccccn3)nc21 = T
• O=C1C(Cl)=C(N2CCOCC2)C(=O)c2ccccc21 = F
• CN(/N=N/c1nc(OCc2ccccc2)c2[nH]cnc2n1)C(=O)N(C)/N=N/c1nc(OCc2ccccc2)c2[nH]cnc2n1 = F

Now, please, on to the next compound.
Enquiry: Returns: the outcome recorded for CCC(C)/C=C(C)/C=C/C(=O)c1c(O)c(-c2ccc(O)cc2)c[nH]c1=O (stereo not drawn) in this assay.
Return: F
